// provenance: patent US10363239B2

The following compounds are shown together with reported MOR agonist activity ([35S]GTPγS binding), FLNA-Binding Compound as Agonist 1 μM values.
test system: mu opiate receptor (MOR); experiment: MOR agonist activity using [35S]GTPγS binding assay in striatal membranes; format: biochemical; details: 1 μM compound
State the answer as a number, implicitly in %.

Some compounds with recorded MOR agonist activity ([35S]GTPγS binding), FLNA-Binding Compound as Agonist 1 μM:
compound: COc1ccc(N2CCN(CC(O)COC3CC(C)CCC3C(C)C)CC2)c(OC)c1 (stereo not shown) [Compound A0012]
result number: 185.7

compound: CC1CCC(C(C)C)C(OCC(O)Cn2ccc3ccccc32)C1 (stereo not shown) [Compound A0078]
result number: 289.9

Prompt line: What MOR agonist activity ([35S]GTPγS binding), FLNA-Binding Compound as Agonist 1 μM appears in the records for this compound with mu opiate receptor (MOR)? CC1CCC(C(C)C)C(OCC(O)CN2CCC2)C1 (stereo not shown) [Compound A0015]
Response line: 150.1

Prompt line: Give recorded MOR agonist activity ([35S]GTPγS binding), FLNA-Binding Compound as Agonist 1 μM with mu opiate receptor (MOR) for the following compound: CC1CCC(C(C)C)C(OCC(O)CN2CCCCCC2)C1 (stereo not shown) [Compound A0013]
Response line: 164.8

Prompt line: Find the measured MOR agonist activity ([35S]GTPγS binding), FLNA-Binding Compound as Agonist 1 μM: item CC1CCC(C(C)C)C(OCC(O)CN2CCc3ccccc3C2)C1 (stereo not shown) [Compound A0040] , target or system mu opiate receptor (MOR).
Response line: 149.0

Prompt line: Query the reported MOR agonist activity ([35S]GTPγS binding), FLNA-Binding Compound as Agonist 1 μM for mu opiate receptor (MOR); item: Cc1ccc(C(C)C)c(OCC(O)CN2CC(C)OC(C)C2)c1 (stereo not shown) [Compound A0028]
Response line: 187.7

Prompt line: Short answer please: MOR agonist activity ([35S]GTPγS binding), FLNA-Binding Compound as Agonist 1 μM, mu opiate receptor (MOR), entry CC1CN(CC(O)COc2ccc(Cl)cc2)CC(C)O1 (stereo not shown) [Compound A0047]
Response line: 255.0

Prompt line: # get_value(readout= MOR agonist activity ([35S]GTPγS binding), FLNA-Binding Compound as Agonist 1 μM, system= mu opiate receptor (MOR)) for CC1CCC(C(C)C)C(OCC(O)CN2CCN(CCc3ccccc3)CC2)C1 (stereo not shown) [Compound A0020]
Response line: 217.4

Prompt line: // lookup MOR agonist activity ([35S]GTPγS binding), FLNA-Binding Compound as Agonist 1 μM | system=mu opiate receptor (MOR) | key= CC1CCC(C(C)C)C(OCC(O)CN2CCCCC2C)C1 (stereo not shown) [Compound A0007]
Response line: 221.9

Prompt line: Short answer please: MOR agonist activity ([35S]GTPγS binding), FLNA-Binding Compound as Agonist 1 μM, mu opiate receptor (MOR), entry CC1CN(CC(O)COc2cc(F)cc(F)c2)CC(C)O1 (stereo not shown) [Compound A0046]
Response line: 354.1

###

tested on: mu opiate receptor (MOR); assay: MOR agonist activity using [35S]GTPγS binding assay in striatal membranes; type: biochemical; conditions: Series C-2; 1 μM compound + 1 μM β-FNA
observable: MOR agonist activity, percent [35S]GTPγS binding at the stated compound concentration (%)
Report the value in % with no unit label.

Prompt line: Look up MOR agonist activity, percent [35S]GTPγS binding at the stated compound concentration: COc1ccc(S(=O)(=O)N2CCOC23CCCNC3)cc1 (centres unmarked) [Compound C0145M-3]
Response line: 87.0

Prompt line: Name the reported MOR agonist activity, percent [35S]GTPγS binding at the stated compound concentration value associated with the compound COc1ccc(S(=O)(=O)N2CCSC23CCNCC3)cc1
Response line: 56.2

Prompt line: Requested field: MOR agonist activity, percent [35S]GTPγS binding at the stated compound concentration. Item: CS(=O)(=O)c1ccc(S(=O)(=O)N2CCOC23CCNCC3)cc1 [Compound C0116M]
Response line: 152.0

Prompt line: What measured MOR agonist activity, percent [35S]GTPγS binding at the stated compound concentration goes with CC(=O)c1ccc(S(=O)(=O)N2CCC3(CC2)OCCN3S(C)(=O)=O)cc1 ?
Response line: 86.3

Prompt line: Please give the measured MOR agonist activity, percent [35S]GTPγS binding at the stated compound concentration for this compound: O=C1CNC2(CCNCC2)N1Cc1ccccc1 [Compound C0114M]
Response line: 35.9

Prompt line: Need MOR agonist activity, percent [35S]GTPγS binding at the stated compound concentration, item CN1CCC2(CC1)NCC(=O)N2Cc1ccccc1 [Compound C0105M]
Response line: 73.1

Prompt line: Quick check: MOR agonist activity, percent [35S]GTPγS binding at the stated compound concentration of O=[N+]([O-])c1ccc(S(=O)(=O)N2CCC3(CC2)NCCS3)cc1 ?
Response line: 59.1

Prompt line: Any idea what its MOR agonist activity, percent [35S]GTPγS binding at the stated compound concentration is? The compound is CCOC(=O)CN1CCC2(CC1)OCCN2S(=O)(=O)c1ccc(C(C)=O)cc1 [Compound C0099M]
Response line: 114.7
